Molecular target: neuraminidase of A/England/412/2008 (H1N1), H275H/Y mix
pIC50: −log10 of the molar value.
quantityKind: pIC50

>>> resultnumber("CCC(CC)[C@H](NC(C)=O)[C@@H]1[C@H](O)[C@@H](C(=O)O)C[C@H]1N=C(N)N [Peramivir, peramivir]")
9.29

* * *

Biological target: neuraminidase of seasonal influenza A(H3N2) virus isolates (Influenza A virus, UniProt X2GK54)
Format: biochemical
Details: read-out: IC50 Range
quantityKind: IC50

>>> result("CCC(CC)[C@H](NC(C)=O)[C@@H]1[C@H](O)[C@@H](C(=O)O)C[C@H]1N=C(N)N")
"50 to 940 pM"

* * *

Molecular target: neuraminidase of seasonal influenza A(H3N2) virus isolates (Influenza A virus)
Assay type: biochemical
Details: read-out: IC50 X0.75 (75th Percentile)
pIC50: −log10 of the molar value.
quantityKind: pIC50

>>> resultnumber("CCC(CC)[C@H](NC(C)=O)[C@@H]1[C@H](O)[C@@H](C(=O)O)C[C@H]1N=C(N)N [Peramivir, peramivir]")
9.72

* * *

Target: neuraminidase of seasonal influenza A(H3N2) virus isolates (Influenza A virus, UniProt X2GK54)
Format: biochemical
Conditions: read-out: IC50 Statistical Cutoff (X0.75 + 3IQR)
pIC50: −log10 of the molar value.
quantityKind: pIC50

>>> resultnumber("CCC(CC)[C@H](NC(C)=O)[C@@H]1[C@H](O)[C@@H](C(=O)O)C[C@H]1N=C(N)N")
9.40

* * *

Target: neuraminidase of seasonal influenza B virus isolates (Influenza B virus, UniProt U5XBU0)
Format: biochemical
Details: read-out: IC50 Mean (±SD)
quantityKind: IC50 (nM)

>>> resultnumber("CCC(CC)[C@H](NC(C)=O)[C@@H]1[C@H](O)[C@@H](C(=O)O)C[C@H]1N=C(N)N")
0.56

* * *

Molecular target: neuraminidase of A/Washington/01/2007, A (H3N2) Seasonal, WT (Influenza A virus, UniProt A7UPN3)
Experiment: biochemical
Conditions: read-out: Mean IC50 ± SD
quantityKind: IC50 (nM)

>>> resultnumber("CCC(CC)[C@H](NC(C)=O)[C@@H]1[C@H](O)[C@@H](C(=O)O)C[C@H]1N=C(N)N")
0.12

* * *

Biological target: neuraminidase of seasonal influenza A(H1N1) H275 wildtype virus isolates (Influenza A virus, UniProt A8C8J7)
Assay type: biochemical
Settings: read-out: IC50 Mean (±SD)
pIC50: −log10 of the molar value.
quantityKind: pIC50

>>> resultnumber("CCC(CC)[C@H](NC(C)=O)[C@@H]1[C@H](O)[C@@H](C(=O)O)C[C@H]1N=C(N)N")
10.00

* * *

Target: neuraminidase of seasonal influenza A(H1N1) H275 wildtype virus isolates (Influenza A virus)
Assay type: biochemical
Conditions: read-out: IC50 Median
pIC50: −log10 of the molar value.
quantityKind: pIC50

>>> resultnumber("CCC(CC)[C@H](NC(C)=O)[C@@H]1[C@H](O)[C@@H](C(=O)O)C[C@H]1N=C(N)N [Peramivir, peramivir]")
10.00

* * *

Target: neuraminidase of 2009 pandemic H1N1 H275 wildtype virus isolates (Influenza A virus, UniProt C3W5S3)
Assay type: biochemical, 2009 pandemic H1N1 influenza virus
Conditions: read-out: IC50 Range
quantityKind: IC50

>>> result("CCC(CC)[C@H](NC(C)=O)[C@@H]1[C@H](O)[C@@H](C(=O)O)C[C@H]1N=C(N)N [Peramivir, peramivir]")
"0.03 to 0.35 nM"
